# target entity: T1, HLA-A*0201 molecule expressed on human tumor cell line T2 (human)
# T1 construct: surface HLA-A2 read with anti-HLA-A2 antibody BB7.2-PE by FACS; also called HLA-A2
# test protocol: T2 cell HLA-A2 stabilisation, FACS; 20% of signal of HIV pol 589-597 at 100 µM
measurement type: Concentration of peptide that induces 20% of HLA-A2 expression (µM)
Your answer should be a plain number; it is taken to be in µM.

Query block: Requested read-out: Concentration of peptide that induces 20% of HLA-A2 expression. Entry: FLPFGFILV (also called candidate peptide) [IL13RA2-B]
Result block: 1.9

Query block: And YLPFGFILV [IL13RA2-B5] ?
Result block: 1.5

Query block: What do we get for YMPFGFILV [IL13RA2-B4] ?
Result block: 4.5

Query block: Moving on to ALPFGFILV (also called comparative peptide of Eguchi et al. 2006) [1A9V]
Result block: 20.9

Query block: Entry to check: FMPFGFILGV [IL13RA2-B3]
Result block: 3.3

Query block: Param item: FMPFGFILV [IL13RA2-B2 (SEQ ID NO: 64, Example 13)]
Result block: 4.5

Query block: Further, for FMPFGFILPI [IL13RA2-B6] ?
Result block: 5.9

Query block: Entry to check: WLPFGFILI [IL13RA2-H]
Result block: 62.3
